Target: Tyrosine-protein phosphatase non-receptor type 2 (Homo sapiens)
Sequence (P17706 whole entry): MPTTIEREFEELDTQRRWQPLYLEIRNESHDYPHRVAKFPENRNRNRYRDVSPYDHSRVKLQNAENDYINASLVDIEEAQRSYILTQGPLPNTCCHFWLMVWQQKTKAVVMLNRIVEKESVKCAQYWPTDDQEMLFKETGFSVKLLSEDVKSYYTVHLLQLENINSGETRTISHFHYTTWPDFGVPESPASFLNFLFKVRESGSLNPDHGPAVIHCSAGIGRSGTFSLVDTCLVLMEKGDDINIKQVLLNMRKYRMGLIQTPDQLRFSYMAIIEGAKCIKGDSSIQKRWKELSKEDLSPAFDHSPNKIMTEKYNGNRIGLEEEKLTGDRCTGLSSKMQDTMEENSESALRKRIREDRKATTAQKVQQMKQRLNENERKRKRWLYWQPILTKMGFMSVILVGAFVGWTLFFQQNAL
Test: Inhibition of human recombinant TCPTP after 30 mins by spectrophotometry
pIC50: −log10 of the molar value.
Readout kind: pIC50

Examples with their reported pIC50 follow.
{"Given smiles": "Nc1ccc(-c2nc(-c3ccc4oc5c(C(=O)O)cccc5c4c3)cs2)cc1", "Assayed target": "Tyrosine-protein phosphatase non-receptor type 2 (Homo sapiens)", "Readout kind": "pIC50", "Endpoint value": 6.16}
{"Given smiles": "O=C(O)/C=C/c1ccc(-c2nc(-c3ccc4oc5c(C(=O)O)cccc5c4c3)cs2)cc1", "Assayed target": "Tyrosine-protein phosphatase non-receptor type 2 (Homo sapiens)", "Readout kind": "pIC50", "Endpoint value": 6.01}
{"Given smiles": "O=C(O)c1cccc2c1oc1ccc(-c3csc(-c4ccc(N5CCOCC5)cc4)n3)cc12", "Assayed target": "Tyrosine-protein phosphatase non-receptor type 2 (Homo sapiens)", "Readout kind": "pIC50", "Endpoint value": 5.79}

[P] O=C(O)c1cccc2c1oc1ccc(-c3csc(-c4cccc(I)c4)n3)cc12
[Q] Cc1ccc(-c2nc(-c3ccc4oc5c(C(=O)O)cccc5c4c3)cs2)cc1
[R] CCc1cc(C[C@H]2NC(=O)CN(CCCCOc3cccc(O)c3C(=O)OC)C2=O)ccc1N(C(=O)C(=O)O)c1ccccc1C(=O)O
**Query** Put the molecules in ascending order of pIC50. // rank by listing labels in the order requested
**Result** P, Q, R
